system: 8505C; assay: Cytotoxicity against human 8505C cells by SRB assay; format: functional, cell-based; conditions: Homo sapiens, 8505C; read-out: EC50
reported metric: EC50

Observe how each entry below is paired with its result.
# input Short answer please: EC50, 8505C, entry C=CCOC(=O)CC[C@]1(C)[C@H]2CC[C@@H]3[C@H]4[C@H]5OC[C@@]4(CCC5(C)C)CC[C@@]3(C)[C@]2(C)CC[C@H]1C(=C)C
# output > 30 µM

# input Next record, please: CCCCOC(=O)C[C@]1(C)[C@H]2CC[C@@H]3[C@H]4[C@H]5OC[C@@]4(CCC5(C)C)CC[C@@]3(C)[C@]2(C)CC[C@H]1C(C)(C)C(=O)OCCCC
# output > 30 µM

Now examine the next entry.
# input Short answer please: EC50, 8505C, entry C=C(C)[C@@H]1CC[C@]2(C)[C@H](CC[C@@H]3[C@H]4[C@H]5OC[C@@]4(CCC5(C)C)CC[C@]32C)[C@@]1(C)CCC(=O)OCCC
# output > 30 µM

---

tested on: 8505C; assay: Cytotoxicity against human 8505C cells by SRB assay; assay type: functional, cell-based; settings: Homo sapiens, 8505C; read-out: EC50
reported metric: pEC50
Kindly note that pEC50 refers to -log10 of the concentration in mol/L and answer with the value alone.

# input Short answer please: pEC50, 8505C, entry COC(=O)C[C@]1(C)[C@H]2CC[C@@H]3[C@H]4[C@H]5OC[C@@]4(CCC5(C)C)CC[C@@]3(C)[C@]2(C)CC[C@H]1C(C)(C)C(=O)OC
# output 4.57

Others:
# input Short answer please: pEC50, 8505C, entry CC1(C)CC[C@]23CC[C@]4(C)[C@H](CC[C@@H]5[C@@]6(C)CC[C@H](N)C(C)(C)[C@@H]6CC[C@]54C)[C@H]2[C@H]1OC3
# output 5.11

---

test system: HT-29; experiment: Cytotoxicity against human HT-29 cells by SRB assay; format: functional, cell-based; settings: Homo sapiens, HT-29; read-out: EC50
Documented EC50 across a set of molecules

Observe how each entry below is paired with its result.
# input Given the entry C=C(C)[C@@H]1CC[C@]2(C)[C@H](CC[C@@H]3[C@H]4[C@H]5OC[C@@]4(CCC5(C)C)CC[C@]32C)[C@@]1(C)CCC(=O)OCCC , report its measured EC50.
# output > 30 µM

# input Next record, please: C=C(C)[C@@H]1CC[C@]2(C)[C@H](CC[C@@H]3[C@H]4[C@H]5OC[C@@]4(CCC5(C)C)CC[C@]32C)[C@@]1(C)CCC(=O)OC
# output > 30 µM

# input Next record, please: CCOC(=O)C[C@]1(C)[C@H]2CC[C@@H]3[C@H]4[C@H]5OC[C@@]4(CCC5(C)C)CC[C@@]3(C)[C@]2(C)CC[C@H]1C(C)(C)C(=O)OCC
# output 17.6 µM

# input Next record, please: C=CCOC(=O)CC[C@]1(C)[C@H]2CC[C@@H]3[C@H]4[C@H]5OC[C@@]4(CCC5(C)C)CC[C@@]3(C)[C@]2(C)CC[C@H]1C(=C)C
# output > 30 µM

# input Next record, please: CC1(C)CC[C@]23CC[C@]4(C)[C@H](CC[C@@H]5[C@@]6(C)C=C(O)C(=O)C(C)(C)[C@@H]6CC[C@]54C)[C@H]2[C@H]1OC3
# output > 30 µM

Now examine the next entry.
# input Given the entry CC1(C)CC[C@]23CC[C@]4(C)[C@H](CC[C@@H]5[C@@]6(C)CC[C@H](O)C(C)(C)[C@@H]6CC[C@]54C)[C@H]2[C@H]1OC3 [ALLOBETULIN] , report its measured EC50.
# output > 30 µM

---

system: 8505C; assay: Cytotoxicity against human 8505C cells by SRB assay; format: functional, cell-based; conditions: Homo sapiens, 8505C; read-out: EC50
pEC50: −log10 of the molar value.
reported metric: pEC50

Observe how each entry below is paired with its result.
# input Given the entry CC1(C)CC[C@]23CC[C@]4(C)[C@H](CC[C@@H]5[C@@]6(C)CCC(=O)OC(C)(C)[C@@H]6CC[C@]54C)[C@H]2[C@H]1OC3 , report its measured pEC50.
# output < 4.52

# input Next record, please: CCCOC(=O)C[C@]1(C)[C@H]2CC[C@@H]3[C@H]4[C@H]5OC[C@@]4(CCC5(C)C)CC[C@@]3(C)[C@]2(C)CC[C@H]1C(C)(C)C(=O)OCCC
# output < 4.52

# input Next record, please: C#CCOC(=O)C[C@]1(C)[C@H]2CC[C@@H]3[C@H]4[C@H]5OC[C@@]4(CCC5(C)C)CC[C@@]3(C)[C@]2(C)CC[C@H]1C(C)(C)C(=O)OCC#C
# output 4.73

# input Next record, please: C=C(C)[C@@H]1CC[C@]2(CO)CC[C@]3(C)[C@H](CC[C@@H]4[C@@]5(C)CC[C@H](O)C(C)(C)[C@@H]5CC[C@]43C)[C@@H]12
# output < 4.52

# input Next record, please: CCOC(=O)C[C@]1(C)[C@H]2CC[C@@H]3[C@H]4[C@H]5OC[C@@]4(CCC5(C)C)CC[C@@]3(C)[C@]2(C)CC[C@H]1C(C)(C)C(=O)OCC
# output 4.61

# input Next record, please: CC1(C)CC[C@]23CC[C@]4(C)[C@H](CC[C@@H]5[C@@]6(C)CC[C@H](O)C(C)(C)[C@@H]6CC[C@]54C)[C@H]2[C@H]1OC3
# output < 4.52

Now examine the next entry.
# input Given the entry CC1(C)CC[C@]23CC[C@]4(C)[C@H](CC[C@@H]5[C@@]6(C)CC[C@@H](N)C(C)(C)[C@@H]6CC[C@]54C)[C@H]2[C@H]1OC3 , report its measured pEC50.
# output 4.81

---

test system: HT-29; test: Cytotoxicity against human HT-29 cells by SRB assay; assay type: functional, cell-based; settings: Homo sapiens, HT-29; read-out: EC50
Documented EC50 across a set of compounds
Please reply with the bare figure in µM and do not write the unit itself.

# input Given the entry C=CCOC(=O)C[C@]1(C)[C@H]2CC[C@@H]3[C@H]4[C@H]5OC[C@@]4(CCC5(C)C)CC[C@@]3(C)[C@]2(C)CC[C@H]1C(C)(C)C(=O)OCC=C , report its measured EC50.
# output 29.2

Others:
# input Given the entry CCCOC(=O)C[C@]1(C)[C@H]2CC[C@@H]3[C@H]4[C@H]5OC[C@@]4(CCC5(C)C)CC[C@@]3(C)[C@]2(C)CC[C@H]1C(C)(C)C(=O)OCCC , report its measured EC50.
# output 27

---

system: HT-29; assay: Cytotoxicity against human HT-29 cells by SRB assay; assay type: functional, cell-based; conditions: Homo sapiens, HT-29; read-out: EC50
reported metric: EC50

Observe how each entry below is paired with its result.
# input Given the entry CC1(C)CC[C@]23CC[C@]4(C)[C@H](CC[C@@H]5[C@@]6(C)CC[C@H](N)C(C)(C)[C@@H]6CC[C@]54C)[C@H]2[C@H]1OC3 , report its measured EC50.
# output 6.2 µM

# input Next record, please: CCCCOC(=O)C[C@]1(C)[C@H]2CC[C@@H]3[C@H]4[C@H]5OC[C@@]4(CCC5(C)C)CC[C@@]3(C)[C@]2(C)CC[C@H]1C(C)(C)C(=O)OCCCC
# output > 30 µM

Others:
# input Given the entry C=C(C)[C@@H]1CC[C@]2(C)[C@H](CC[C@@H]3[C@H]4[C@H]5OC[C@@]4(CCC5(C)C)CC[C@]32C)[C@@]1(C)CCC(=O)OCC , report its measured EC50.
# output > 30 µM

---

tested on: HT-29; test: Cytotoxicity against human HT-29 cells by SRB assay; type: functional, cell-based; details: Homo sapiens, HT-29; read-out: EC50
reported metric: EC50 (µM)
Please reply with the bare figure in µM and do not write the unit itself.

# input Given the entry CC1(C)CC[C@]23CC[C@]4(C)[C@H](CC[C@@H]5[C@@]6(C)CC[C@@H](N)C(C)(C)[C@@H]6CC[C@]54C)[C@H]2[C@H]1OC3 , report its measured EC50.
# output 6.8

# input Next record, please: C#CCOC(=O)C[C@]1(C)[C@H]2CC[C@@H]3[C@H]4[C@H]5OC[C@@]4(CCC5(C)C)CC[C@@]3(C)[C@]2(C)CC[C@H]1C(C)(C)C(=O)OCC#C
# output 15.7

Now examine the next entry.
# input Given the entry COC(=O)C[C@]1(C)[C@H]2CC[C@@H]3[C@H]4[C@H]5OC[C@@]4(CCC5(C)C)CC[C@@]3(C)[C@]2(C)CC[C@H]1C(C)(C)C(=O)OC , report its measured EC50.
# output 17.5

---

test system: 8505C; test: Cytotoxicity against human 8505C cells by SRB assay; type: functional, cell-based; settings: Homo sapiens, 8505C; read-out: EC50
reported metric: EC50

# input Given the entry C#CCOC(=O)CC[C@]1(C)[C@H]2CC[C@@H]3[C@H]4[C@H]5OC[C@@]4(CCC5(C)C)CC[C@@]3(C)[C@]2(C)CC[C@H]1C(=C)C , report its measured EC50.
# output > 30 µM

# input Next record, please: CC1(C)CC[C@]23CC[C@]4(C)[C@H](CC[C@@H]5[C@@]6(C)C=C(O)C(=O)C(C)(C)[C@@H]6CC[C@]54C)[C@H]2[C@H]1OC3
# output > 30 µM

# input Next record, please: C=CCOC(=O)C[C@]1(C)[C@H]2CC[C@@H]3[C@H]4[C@H]5OC[C@@]4(CCC5(C)C)CC[C@@]3(C)[C@]2(C)CC[C@H]1C(C)(C)C(=O)OCC=C
# output > 30 µM

The reported measurements were obtained from ChEMBL document CHEMBL3585269.
